# test target: ERα protein (HiBiT-tagged) in ESR1_HiBiT KI MCF7 cells (Homo sapiens, UniProt P03372)
# Sequence (P03372 1-595): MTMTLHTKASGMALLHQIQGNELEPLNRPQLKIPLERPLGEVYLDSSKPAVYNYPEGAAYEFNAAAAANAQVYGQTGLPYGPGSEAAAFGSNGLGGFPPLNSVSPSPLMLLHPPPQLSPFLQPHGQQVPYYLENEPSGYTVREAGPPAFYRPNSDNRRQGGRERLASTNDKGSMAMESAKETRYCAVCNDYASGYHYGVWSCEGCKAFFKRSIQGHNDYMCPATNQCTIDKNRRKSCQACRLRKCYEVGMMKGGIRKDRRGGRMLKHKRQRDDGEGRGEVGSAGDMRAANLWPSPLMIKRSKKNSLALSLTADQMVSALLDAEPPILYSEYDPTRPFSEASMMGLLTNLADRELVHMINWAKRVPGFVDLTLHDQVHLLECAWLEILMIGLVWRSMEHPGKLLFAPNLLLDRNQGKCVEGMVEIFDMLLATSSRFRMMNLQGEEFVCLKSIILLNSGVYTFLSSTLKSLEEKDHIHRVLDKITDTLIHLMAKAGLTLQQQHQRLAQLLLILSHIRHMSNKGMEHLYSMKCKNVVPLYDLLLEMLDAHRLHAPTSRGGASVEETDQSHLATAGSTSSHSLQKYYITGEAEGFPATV
# assay info: Nano Glo HiBiT Lytic Degradation Assay
# Type: cell-based
# condition description: 6 hours with compound, 14-point dose response 1:3, bell-shape curve fit, half-maximal effect of first Hill model, read-out: MCF7 ESR1 HiBiT - (DC50)
Give measured log10 DC50 for each item. Keep answers brief.
Hello, just confirming the data are log10 of DC50 with units of nM.

// solved cases for log10 DC50 follow
O=C1CC[C@H](N2Cc3cc(N4CCN(CC5CCN(c6ccc([C@@H]7c8ccc(O)cc8CC[C@@H]7C7CCCCC7)cc6F)CC5)CC4)ccc3C2=O)C(=O)N1 [Compound I-162]; 0.48
O=C1CCC(N2Cc3cc(N4CCN(CC5CCC(c6ccc([C@@H]7c8ccc(O)cc8CC[C@@H]7c7ccccc7)cc6)CC5)CC4)ccc3C2=O)C(=O)N1 (some centres unmarked) [II-53]; -0.66
Cn1nccc1[C@@H]1CCc2cc(O)ccc2[C@@H]1c1ccc(N2CCC(CN3CCN(c4ccc5c(c4)CN([C@H]4CCC(=O)NC4=O)C5=O)CC3)CC2)cc1 (single isomer, unassigned) [Compound I-25]; -1.70

For every item below, please supply its log10 DC50.
1. O=C1CC[C@H](N2Cc3cc(N4CCN(CC5CCN(c6ccc([C@@H]7c8ccc(O)cc8C(F)(F)C[C@@H]7c7ccc(F)c(F)c7)cc6)CC5)CC4)ccc3C2=O)C(=O)N1 [Compound I-314]
2. C[C@@]1(C2CCCCC2)CCc2cc(O)ccc2[C@H]1c1ccc(N2CCC(CN3CCN(c4ccc5c(c4)CN([C@H]4CCC(=O)NC4=O)C5=O)CC3)CC2)cc1 [Compound I-240]
3. CC(C1CCN(c2ccc([C@@H]3c4ccc(O)cc4CC[C@@H]3c3ccccc3)cc2)CC1)N1CCN(c2ccc3c(c2)CN([C@H]2CCC(=O)NC2=O)C3=O)CC1 (single isomer, unassigned) [II-44]
4. O=C1CC[C@H](N2Cc3cc(N4CCN(CC5CCN(c6ccc([C@H]7c8ccc(O)cc8C(F)(F)C[C@H]7c7ccccc7F)cc6)CC5)CC4)ccc3C2=O)C(=O)N1 [Compound I-313]
5. COc1cc(N2CCC(CN3CCN(c4ccc5c(c4)CN([C@H]4CCC(=O)NC4=O)C5=O)CC3)CC2)ccc1[C@H]1c2ccc(O)cc2CC[C@H]1C1CCCCC1 [Compound I-151]
6. O=C1CC[C@H](N2Cc3cc(N4CCN(CC5CCN(c6ccc([C@H]7c8ccc(O)cc8CC[C@H]7C7CCCCC7)cc6F)CC5)CC4)ccc3C2=O)C(=O)N1 [Compound I-236]
7. O=C1CC[C@H](N2Cc3cc(N4CCN(CC5CCN(c6ccc([C@H]7c8ccc(O)cc8CC[C@H]7c7ccc8c(c7)CC8)cc6)CC5)CC4)ccc3C2=O)C(=O)N1 (single isomer, unassigned) [Compound I-58]

Found:
1. -0.48
2. 0.48
3. 0.30
4. 1.18
5. 1.04
6. 1.86
7. -1.32
